Test system: U2OS
Test: Multiplex assay against U2OS
Assay type: toxicity, cell-based
Conditions: human, 48 h, 1 µM, compound concentration 1 uM, replicate 1

{"molecule": "O=C1NC(=O)C(c2cnc3ccccn23)=C1c1cn2c3c(cc(F)cc13)CN(C(=O)N1CCCCC1)CC2 [LY-2090314]", "Population Healthy Nuclei (%)": "63%"}
{"molecule": "Cc1ccc(C(=O)Nc2cccc(C(F)(F)F)c2)cc1Nc1nc(-c2cccnc2)nc2c1cnn2C", "Population Healthy Nuclei (%)": "80%"}
{"molecule": "CCCn1c(=O)c2[nH]c(-c3cnn(Cc4cccc(C(F)(F)F)c4)c3)nc2n(CC)c1=O [GS 6201]", "Population Healthy Nuclei (%)": "82%"}
{"molecule": "Cl.O=c1c2cccn2c2ccccc2n1CCCN1CCC(c2ccc(Cl)cc2)CC1", "Population Healthy Nuclei (%)": "82%"}
{"molecule": "CCn1c(=O)c(-c2ccc(-c3cncs3)cc2Cl)cc2cnc(Nc3ccc(N4CCN(C)CC4)cc3)nc21", "Population Healthy Nuclei (%)": "85%"}
{"molecule": "CCOc1cc(C(=O)N2CCC(N3CCN(C)CC3)CC2)ccc1Nc1ncc2c(n1)N(C1CCCC1)c1ccccc1C(=O)N2C", "Population Healthy Nuclei (%)": "64%"}
{"molecule": "O=C(Nc1ccc(-n2nc(-c3cccnc3)cc2C(F)(F)F)cn1)c1ccc(-c2ccccc2)c(F)c1 [BI 2049]", "Population Healthy Nuclei (%)": "82%"}
{"molecule": "O=C1N/C(=N/c2ccccc2F)S/C1=C\\c1ccc(C(=O)O)cc1", "Population Healthy Nuclei (%)": "86%"}
{"molecule": "COc1cc(N2CCN(C)CC2)ccc1Nc1ncc2c(n1)N(C)c1ccccc1C(=O)N2C", "Population Healthy Nuclei (%)": "77%"}

* * *

Tested on: HEK-293T
Test: Multiplex assay against HEK293T
Format: toxicity, cell-based
Details: human, 12 h, 10 µM, compound concentration 10 uM, replicate 2

{"compound": "NC(=O)c1cccc(-c2cc(Nc3ccc(OC(F)(F)F)cc3)ncn2)c1", "Population Mitotic Cells (%)": 75}
{"compound": "O=C(Cc1ccc(-c2ccc(OCCN3CCOCC3)cc2)cn1)NCc1ccccc1 [TIRBANIBULIN]", "Population Mitotic Cells (%)": 82}
{"compound": "CCN1CCN(c2ccc(Nc3cc(N(C)C(=O)Nc4c(Cl)c(OC)cc(OC)c4Cl)ncn3)cc2)CC1 [INFIGRATINIB]", "Population Mitotic Cells (%)": 90}
{"compound": "Cc1cc(C)c(S(=O)(=O)N(Cc2ccc(-c3cccc(S(C)(=O)=O)c3)cc2)Cc2ccc(C(F)(F)F)o2)c(C)c1", "Population Mitotic Cells (%)": 93}
{"compound": "Cc1ccc(C(=O)Nc2cccc(C(F)(F)F)c2)cc1Nc1nc(-c2cccnc2)nc2c1cnn2C", "Population Mitotic Cells (%)": 21}
{"compound": "CN1CCC(=C2c3ccccc3CC(=O)c3sccc32)CC1.O=C(O)/C=C/C(=O)O [KETOTIFEN FUMARATE]", "Population Mitotic Cells (%)": 45}
{"compound": "Cl.O=c1c2cccn2c2ccccc2n1CCCN1CCC(c2ccc(Cl)cc2)CC1", "Population Mitotic Cells (%)": 7}
{"compound": "CCOC(=O)c1c(C)[nH]c2ccc3c(c12)CN1CCc2cc(OC)ccc2C1O3 (configuration not stated)", "Population Mitotic Cells (%)": 11}
{"compound": "CCn1c(=O)c(-c2ccc(-c3cncs3)cc2Cl)cc2cnc(Nc3ccc(N4CCN(C)CC4)cc3)nc21", "Population Mitotic Cells (%)": 84}
{"compound": "COc1ccc(-c2ccc3c(N4CCOCC4)nc(N4C[C@@H](C)O[C@@H](C)C4)nc3n2)cc1CO [Ku-0063794]", "Population Mitotic Cells (%)": 60}
{"compound": "Cl.Oc1ccc2c3c1O[C@H]1c4[nH]c5c(c4C[C@@]4(O)[C@@H](C2)N(CC2CC2)CC[C@]314)C[C@@]1(O)[C@H]2Cc3ccc(O)c4c3[C@@]1(CCN2CC1CC1)[C@H]5O4", "Population Mitotic Cells (%)": 92}
{"compound": "Cc1cn(-c2cc(NC(=O)c3ccc(C)c(Nc4nccc(-c5cccnc5)n4)c3)cc(C(F)(F)F)c2)cn1 [NILOTINIB]", "Population Mitotic Cells (%)": 62}
{"compound": "CCCS(=O)(=O)c1nc(NC2CC2)cc(-c2ccc3c(ccn3C3CC(C)(C)NC(C)(C)C3)c2)n1", "Population Mitotic Cells (%)": 25}
{"compound": "O=C(Nc1ccc(-n2nc(-c3cccnc3)cc2C(F)(F)F)cn1)c1ccc(-c2ccccc2)c(F)c1 [BI 2049]", "Population Mitotic Cells (%)": 88}
{"compound": "CCn1cc(-c2ccnc3[nH]c(-c4cccc(CN(C)C)c4)cc23)c(-c2ccc(NC(=O)N(C)C)cc2)n1 [GSK-1070916]", "Population Mitotic Cells (%)": 91}
{"compound": "CN1C2CCC1CC(OC(c1ccc(F)cc1)c1ccc(F)cc1)C2.Cl (configuration not stated)", "Population Mitotic Cells (%)": 36}
{"compound": "CN(C)C(=O)C(CCN1CCC(O)(c2ccc(Cl)cc2)CC1)(c1ccccc1)c1ccccc1.Cl [LOPERAMIDE HYDROCHLORIDE]", "Population Mitotic Cells (%)": 1}
{"compound": "CCN1CCN(Cc2ccc(Nc3ncc(F)c(-c4cc(F)c5nc(C)n(C(C)C)c5c4)n3)nc2)CC1.CS(=O)(=O)O", "Population Mitotic Cells (%)": 37}
{"compound": "CCc1cccc(CC)c1NC(=O)c1nn(C)c2c1CCc1cnc(Nc3ccc(N4CCN(C)CC4)cc3OC)nc1-2", "Population Mitotic Cells (%)": 94}
{"compound": "C=CCn1c(=O)c2cnc(Nc3ccc(N4CCN(C)CC4)cc3)nc2n1-c1cccc(C(C)(C)O)n1 [ADAVOSERTIB]", "Population Mitotic Cells (%)": 90}
{"compound": "CCCS(=O)(=O)Nc1ccc(F)c(C(=O)c2c[nH]c3ncc(Cl)cc23)c1F [PLX-4720]", "Population Mitotic Cells (%)": 88}
{"compound": "COCC(=O)NC/C=C/c1ccc2ncnc(Nc3ccc(Oc4ccc(C)nc4)c(C)c3)c2c1 [CP-724714]", "Population Mitotic Cells (%)": 51}
{"compound": "Cn1nc(C(F)(F)F)cc1-c1cnc(N2CCc3cc(S(=O)(=O)Nc4c(F)cc(Cl)cc4F)cc(N4CCCC4=O)c32)nc1 [TP-020]", "Population Mitotic Cells (%)": 95}
{"compound": "S=C(NCCCc1c[nH]cn1)NCCCN(Cc1ccc(Cl)c(Cl)c1)c1ccc(Br)cn1", "Population Mitotic Cells (%)": 15}
{"compound": "O=C(Nc1ccc(-c2ccnc(Nc3ccc(N4CCOCC4)cc3)n2)cc1)[C@@H]1CCCN1", "Population Mitotic Cells (%)": 72}
{"compound": "O=C1N/C(=N/c2ccccc2F)S/C1=C\\c1ccc(C(=O)O)cc1", "Population Mitotic Cells (%)": 89}
{"compound": "COc1ccc(S(=O)(=O)N(CCO)c2ccccc2CN(C)C/C=C/c2ccc(Cl)cc2)cc1.O=P(O)(O)O", "Population Mitotic Cells (%)": 86}
{"compound": "CNc1cc(Oc2cc(C(=O)Nc3cc(N4CCN(C)CC4)cc(C(F)(F)F)c3)ccc2C)ncn1", "Population Mitotic Cells (%)": 1}
{"compound": "O=C(Nc1ccc(Cl)cc1)Nc1cccc(-c2cccc(N3CCCC3)n2)c1", "Population Mitotic Cells (%)": 53}
{"compound": "CNC(=O)c1ccc(Nc2nc(OC3CCCC3)c3c(-c4ccc5nc(C)oc5c4)c[nH]c3n2)c(OC)c1", "Population Mitotic Cells (%)": 85}
{"compound": "COc1cc2ncnc(Nc3ccc(F)c(Cl)c3)c2cc1NC(=O)/C=C/CN1CCCCC1 [DACOMITINIB ANHYDROUS]", "Population Mitotic Cells (%)": 87}
{"compound": "COc1cc(N2CCN(C)CC2)ccc1Nc1ncc2c(n1)N(C)c1ccccc1C(=O)N2C", "Population Mitotic Cells (%)": 41}

* * *

Tested on: U2OS
Assay: Multiplex assay against U2OS
Type: toxicity, cell-based
Conditions: human, 24 h, 1 µM, compound concentration 1 uM, replicate 2
Reported Population Mitochondria Different-Phenotype (%) is given for each of the following molecules.
quantity-measured: Population Mitochondria Different-Phenotype (%)

{"molecule": "COC(=N)c1nc2ccc3ncnc(Nc4ccc(OC)cc4F)c3c2s1", "test-value": 27}
{"molecule": "CCn1c(=O)c(-c2ccc(-c3cncs3)cc2Cl)cc2cnc(Nc3ccc(N4CCN(C)CC4)cc3)nc21", "test-value": 5}
{"molecule": "CN1C2CCC1CC(OC(c1ccc(F)cc1)c1ccc(F)cc1)C2.Cl (configuration not stated)", "test-value": 4}
{"molecule": "CN(C)C(=O)C(CCN1CCC(O)(c2ccc(Cl)cc2)CC1)(c1ccccc1)c1ccccc1.Cl [LOPERAMIDE HYDROCHLORIDE]", "test-value": 89}
{"molecule": "CCOC(=O)c1c(C)[nH]c2ccc3c(c12)CN1CCc2cc(OC)ccc2C1O3 (configuration not stated)", "test-value": 58}
{"molecule": "Cc1cc(C)c(S(=O)(=O)N(Cc2ccc(-c3cccc(S(C)(=O)=O)c3)cc2)Cc2ccc(C(F)(F)F)o2)c(C)c1", "test-value": 18}
{"molecule": "O=C1N/C(=N/c2ccccc2F)S/C1=C\\c1ccc(C(=O)O)cc1", "test-value": 10}
{"molecule": "C=C1/C(=C\\C=C2/CCC[C@]3(C)[C@@H]([C@H](C)/C=C/[C@H](C)C(C)C)CC[C@@H]23)C[C@@H](O)C[C@@H]1O", "test-value": 7}
{"molecule": "COc1ccc(S(=O)(=O)N(CCO)c2ccccc2CN(C)C/C=C/c2ccc(Cl)cc2)cc1.O=P(O)(O)O", "test-value": 98}
{"molecule": "O=C(Nc1ccc(-n2nc(-c3cccnc3)cc2C(F)(F)F)cn1)c1ccc(-c2ccccc2)c(F)c1", "test-value": 9}
{"molecule": "CCOc1cc(C(=O)N2CCC(N3CCN(C)CC3)CC2)ccc1Nc1ncc2c(n1)N(C1CCCC1)c1ccccc1C(=O)N2C", "test-value": 65}
{"molecule": "Cl.O=C(c1ccc(Nc2nccc(-c3cc4ccccc4s3)n2)cc1)N1CCC(N2CCCC2)CC1", "test-value": 11}
{"molecule": "CNc1cc(Oc2cc(C(=O)Nc3cc(N4CCN(C)CC4)cc(C(F)(F)F)c3)ccc2C)ncn1", "test-value": 68}
{"molecule": "O=C1NC(=O)C(c2cnc3ccccn23)=C1c1cn2c3c(cc(F)cc13)CN(C(=O)N1CCCCC1)CC2", "test-value": 22}
{"molecule": "O=C(Cc1ccc(-c2ccc(OCCN3CCOCC3)cc2)cn1)NCc1ccccc1", "test-value": 44}
{"molecule": "C=CCn1c(=O)c2cnc(Nc3ccc(N4CCN(C)CC4)cc3)nc2n1-c1cccc(C(C)(C)O)n1", "test-value": 26}
{"molecule": "CCNc1cc(N[C@H]2CC[C@H](O)CC2)nc(Nc2ccc3c(ccn3Cc3ccccc3)c2)n1", "test-value": 53}
